Taken from patent US20240132624A1.

- measurement-target: T1, cyno FcRn/b2M (cyno, UniProt Q8SPV9 24-297; Q8SPW0 21-119, biotinylated)
- T1 construct: bought recombinant biotinylated protein (Immunitrack ITF05 or ACRO FCM-C82W5); also called cFcRn; cFcRn/cb2M
- T1 sequence (Q8SPV9 24-297 limits assumed, chain 1 of 2): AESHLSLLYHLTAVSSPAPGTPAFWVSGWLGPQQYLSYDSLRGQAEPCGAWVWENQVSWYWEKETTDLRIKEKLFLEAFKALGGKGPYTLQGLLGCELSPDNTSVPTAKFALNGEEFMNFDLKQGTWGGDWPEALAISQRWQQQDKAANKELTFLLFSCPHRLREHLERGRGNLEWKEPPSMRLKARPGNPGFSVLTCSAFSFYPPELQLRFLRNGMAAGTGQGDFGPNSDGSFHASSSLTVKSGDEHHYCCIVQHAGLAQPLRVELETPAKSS
- T1 sequence (Q8SPW0 21-119 limits assumed, chain 2 of 2): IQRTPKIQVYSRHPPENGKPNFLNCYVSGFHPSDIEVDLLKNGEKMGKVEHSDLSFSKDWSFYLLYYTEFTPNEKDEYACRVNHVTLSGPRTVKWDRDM
- procedure-text: SPR pH 6.0;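 further: surface plasmon resonance kinetics at 25 °C, diluted periplasmic extracts injected over immobilized ligand surfaces, 120 s association then 600–3600 s dissociation, running buffer containing 150 mM NaCl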
assay-readout: koff (s⁻¹)
Entry rule: numbers only, all in s⁻¹.

• T0263018B11 W100cL (VHH, name in Kabat numbering, FLAG3-His6 tagged) VHH: EVQLVESGGGVVQPGGSLRLSCAASGFTFSSYAMYWVRQAPGKGLEWVSAISSGGGSTDYADSVKGRFTISRDNSKNTLYLQMNSLRPEDTALYYCAADTLYTSLTLYSYWGQGTLVTVSS = 0.0051

Consider now this further binder.
## Task What measured koff goes with T0263018B11 F27I (VHH, name in Kabat numbering, FLAG3-His6 tagged) VHH: EVQLVESGGGVVQPGGSLRLSCAASGITFSSYAMYWVRQAPGKGLEWVSAISSGGGSTDYADSVKGRFTISRDNSKNTLYLQMNSLRPEDTALYYCAADTLYTSLTWYSYWGQGTLVTVSS ?
## Result 0.00036
